- PROTOCOL_DESCRIPTION: acute toxicity in Sprague-Dawley rats
- CONDITION: rat, in vivo, po
OUTCOME_MEASURE: LD50 (mg/kg)

| SMILES_INPUT | UNITS_SYMBOL | NUMERIC_READOUT |
| --- | --- | --- |
| Oc1c(I)cc(I)cc1I | mg/kg | 1500 |

---

Catalogue of molecules with associated inhibition at 25 µM
- TESTED_SYSTEM: 5-lipoxygenase (5-LO) (Homo sapiens)
- Construct: endogenous in cells; host or cells: human polymorphonuclear leukocytes from donor blood
- Sequence (P09917 whole entry): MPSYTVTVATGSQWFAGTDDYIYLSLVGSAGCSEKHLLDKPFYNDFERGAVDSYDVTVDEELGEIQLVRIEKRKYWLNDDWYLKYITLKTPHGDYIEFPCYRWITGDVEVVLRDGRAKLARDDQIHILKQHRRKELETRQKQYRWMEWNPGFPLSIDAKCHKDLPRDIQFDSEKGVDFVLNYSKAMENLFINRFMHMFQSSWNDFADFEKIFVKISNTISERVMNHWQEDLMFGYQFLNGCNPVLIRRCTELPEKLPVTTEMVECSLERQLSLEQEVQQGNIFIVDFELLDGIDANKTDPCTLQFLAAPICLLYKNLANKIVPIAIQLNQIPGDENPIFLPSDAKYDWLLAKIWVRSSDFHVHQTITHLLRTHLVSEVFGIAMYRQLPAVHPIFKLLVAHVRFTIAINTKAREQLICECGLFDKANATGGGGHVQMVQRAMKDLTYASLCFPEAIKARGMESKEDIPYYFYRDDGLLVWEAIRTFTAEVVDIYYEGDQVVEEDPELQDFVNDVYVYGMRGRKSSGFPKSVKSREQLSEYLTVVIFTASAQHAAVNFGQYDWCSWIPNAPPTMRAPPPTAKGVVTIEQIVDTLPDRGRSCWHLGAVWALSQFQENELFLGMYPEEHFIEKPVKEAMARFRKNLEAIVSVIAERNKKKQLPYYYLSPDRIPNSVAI
- PROTOCOL_DESCRIPTION: 5-LO inhibiting activity in human polymorphonuclear leukocytes ([14C]-arachidonic acid, A23187; HPLC of eicosanoids)
- Format: cell-based
- CONDITION: 25 μM concentration; read-out: 5-LO inhibitory activity, approximate inhibition percentage

| SMILES_INPUT | inhibition at 25 µM (%) |
| --- | --- |
| CC(C)(C)c1cc(I)c(O)c(I)c1 | 85 |
| CC(C)c1cc(I)c(O)c(I)c1 | 85 |
| Oc1c(Cl)cc(I)cc1I | 73 |
| Oc1c(I)cc(I)c(Cl)c1I | 90 |
| CC(C)(C)c1cc(I)cc(I)c1O | 87 |
| CC(C)(C)c1cc(I)ccc1O | 96 |
| CCc1cc(I)cc(I)c1O | 74 |
| Oc1c(I)cc(Cl)cc1I | 80 |
| Oc1c(I)cc(-c2ccccc2)cc1I | 97 |
| Oc1c(I)cc(C(F)(F)F)cc1I | 100 |
| Oc1c(I)cc(I)cc1C(F)(F)F | 97 |
| CC(C)(C)c1ccc(O)c(I)c1 | 80 |
| CC(C)c1cc(I)cc(I)c1O | 95 |
| CC(C)c1cc(I)cc(C(C)C)c1O | 94 |
| CCc1c(I)cc(I)c(O)c1I | 94 |
| Oc1c(I)cc(I)c(F)c1I | 100 |
| Oc1c(Br)cc(I)cc1I | 88 |
| Cc1c(I)cc(I)c(O)c1I | 97 |
